System: SK-MEL-5 melanoma
Test: NCI tumour cell line growth inhibition, 48 h
OUTCOME_MEASURE: GI50

STRUCTURE_SMILES_STRING	DATA_VALUE
COc1cc(C(=O)/C=C/c2cc(C(=O)c3cc(OC)c(OC)c(OC)c3)ccc2OC)ccc1N	1.02 µM
COc1cc2c(cc1OCCOS(C)(=O)=O)N=C[C@@H]1CCCN1C2=O	16.9 µM
CC(C)CCOc1ccc(-c2n[nH]c(C(F)(F)F)c2-c2cncc(C#N)c2)c(O)c1	0.943 µM
Cc1nc2sccn2c(=O)c1CCN1CCC(=C(c2ccc(F)cc2)c2ccc(F)cc2)CC1	4.01 µM
CCN(CC)CCCNc1cccc2c(SCc3ccccc3)ccnc12	1.68 µM
